Data origin, for the record: patent US20080004253A1

Readings of pIC50 for the listed compounds
Target: human TRPV1 (Homo sapiens)
Sequence (Q8NER1 whole entry): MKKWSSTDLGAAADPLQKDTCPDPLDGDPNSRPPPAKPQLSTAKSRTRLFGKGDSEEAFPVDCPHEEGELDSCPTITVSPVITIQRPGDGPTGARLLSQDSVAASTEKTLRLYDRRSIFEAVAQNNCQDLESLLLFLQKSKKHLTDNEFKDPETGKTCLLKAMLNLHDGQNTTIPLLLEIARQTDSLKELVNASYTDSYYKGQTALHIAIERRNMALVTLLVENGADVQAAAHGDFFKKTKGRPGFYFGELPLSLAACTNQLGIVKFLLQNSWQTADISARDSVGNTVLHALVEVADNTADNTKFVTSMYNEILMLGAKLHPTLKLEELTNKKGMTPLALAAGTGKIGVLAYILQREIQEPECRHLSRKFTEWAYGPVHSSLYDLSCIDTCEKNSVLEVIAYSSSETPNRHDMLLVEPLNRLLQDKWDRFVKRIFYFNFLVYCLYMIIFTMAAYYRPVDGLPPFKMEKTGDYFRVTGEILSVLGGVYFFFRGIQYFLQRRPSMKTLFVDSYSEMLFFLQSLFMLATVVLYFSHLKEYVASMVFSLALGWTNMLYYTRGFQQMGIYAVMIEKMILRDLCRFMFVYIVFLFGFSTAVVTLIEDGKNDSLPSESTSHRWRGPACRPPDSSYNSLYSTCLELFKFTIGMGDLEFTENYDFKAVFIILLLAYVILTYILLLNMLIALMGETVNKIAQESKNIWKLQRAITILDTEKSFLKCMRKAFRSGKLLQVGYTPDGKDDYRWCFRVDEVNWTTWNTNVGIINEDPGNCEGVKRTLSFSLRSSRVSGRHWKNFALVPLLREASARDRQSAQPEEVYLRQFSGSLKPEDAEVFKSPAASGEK
Test: Functional assay: block of capsaicin-induced Ca2+ influx, human assay (hTRPV1/HEK293, FLIPR)
Settings: hTRPV1/HEK293 cells, 150 nM capsaicin challenge, Fluo-3 fluorescence; mean; > value = solubility limit in assay medium
pIC50: −log10 of the molar value.
measurement label: pIC50

Cc1nc(Nc2ccc(C(F)(F)F)cc2)c2nc(N(C)c3c(Cl)cccc3Cl)sc2n1; 5.94
Cc1nc(Nc2ccc(C(C)C)cc2)c2nc(Nc3c(C)cccc3C)sc2n1; 6.91
Cc1nc(NC2CCC(C(C)(C)C)CC2)c2nc(Nc3c(C)cccc3C)sc2n1 (mixture of isomers); 5.36
CC(=O)c1ccc(Nc2ncnc3sc(Nc4c(C)cccc4C)nc23)cc1; 6.86
Cc1nc(Nc2ccc(C(C)C)cc2)c2nc(Nc3c(Cl)cccc3Cl)sc2n1; 8.40
Cc1ccccc1Nc1nc2c(Nc3ccc(C(F)(F)F)nc3)ncnc2s1; 7.26
OCc1cc(Cl)c(Nc2nc3c(Nc4ccc(C(F)(F)F)cc4)ncnc3s2)c(Cl)c1; 9.00
CC(CO)Nc1nc(Nc2ccc(C(F)(F)F)cc2)c2nc(Nc3c(Cl)cccc3Cl)sc2n1 (racemic); 6.19
CC(C)CNc1nc(Nc2ccc(C(F)(F)F)cc2)c2nc(Nc3c(Cl)cccc3Cl)sc2n1; 8.70
Cc1cccc(C)c1Nc1nc2c(Nc3ccc(C#N)nc3)ncnc2s1; 6.68
CC1CCCCN1c1nc(Nc2ccc(C(F)(F)F)c(Cl)c2)c2nc(Nc3c(Cl)cccc3Cl)sc2n1 (racemic); 6.69
Cc1nc(Nc2ccc(C(C)(C)C)cc2)c2nc(Nc3c(C)noc3C)sc2n1; 6.57
Cc1cccc(C)c1Nc1nc2c(Nc3ccccc3)ncnc2s1; 6.14
Cc1cccc(C)c1Nc1nc2c(Nc3ccc(S(N)(=O)=O)cc3)ncnc2s1; 4.83
FC(F)(F)c1ccc(Nc2ncnc3sc(Nc4c(Cl)cccc4Cl)nc23)cc1; 7.92
Cc1nc(Nc2ccc(C(F)(F)F)c(Cl)c2)c2nc(Nc3c(Cl)cccc3Cl)sc2n1; 8.52
FC(F)(F)c1ccc(Nc2ncnc3sc(Nc4c(Cl)cccc4C(F)(F)F)nc23)cc1; 7.52
Cc1cccc(C)c1Nc1nc2c(Nc3ccc(OC4CCOC4)cc3)ncnc2s1 (racemic); 5.82
CC1CCCCN1c1nc(Nc2ccc(S(C)(=O)=O)cc2)c2nc(Nc3c(Cl)cccc3Cl)sc2n1 (racemic); 6.80
Cc1cccc(C)c1Nc1nc2c(Nc3ccc(S(=O)(=O)N4CCOCC4)cc3)ncnc2s1; 8.15
Cc1cccc(C)c1Nc1nc2c(Nc3cccc(C(F)(F)F)c3)ncnc2s1; 5.30
CSc1ccc(Nc2ncnc3sc(Nc4c(Cl)cccc4Cl)nc23)cc1Cl; 7.01
COC(=O)c1scc(C)c1Nc1nc2c(Nc3ccc(C(F)(F)F)cc3)ncnc2s1; 6.68
